Molecular target: T1, Peptide 8: Biotin-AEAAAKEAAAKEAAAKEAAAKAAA-Tyr-acid (N-terminal biotin; C-terminal acid)
T1 construct: control peptide without PC
T1 peptide: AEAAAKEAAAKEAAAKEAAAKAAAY
Assay: scFv ELISA
Method: For ELISA analysis of scFv binding, 96-well polystyrene plates were coated with Peptide 1, 4, 5, 8 or 100 μL BSA (10 μg/mL) in PBS at 4° C. overnight. […] All plates were washed three times with PBS-Tween before 40 μL aliquots of PPE were added to assay plates along with 50 μL 10% BSA, and plates were incubated for 1 hour at room temperature. […] The amount of scFv bound to each well was quantitated from absorbance measurement at 450 nm (OD450).
reported.metric: OD450 (OD450)
Give just the numeric value; OD450 need not be written.

Below, 3 binders whose answers are already recorded.
>  <binder>
PcOxP_DB03_A08 (scFv, V domains shown, scFv in periplasmic extract) VH: EVQLLESGGGLVQPGGSLRLSCAASGFTFSDVYMEWVRQAPGKGLEWVAASRNKANDYTTEYADSVKGRFTISRDNSKNTLYLQMNSLRAEDTAVYYCARDYYGSSYWYFDVWGQGTLVTVSS VL: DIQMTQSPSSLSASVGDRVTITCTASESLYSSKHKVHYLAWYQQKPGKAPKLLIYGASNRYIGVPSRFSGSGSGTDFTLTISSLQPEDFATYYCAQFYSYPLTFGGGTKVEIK

>  <OD450 (OD450)>
0.05

$$$$
>  <binder>
PcOxP_DB01_C06 (scFv, V domains shown, scFv in periplasmic extract) VH: EVQLLESGGGLVQPGGSLRLSCAASGFEFSDNYMEWVRQAPGKGLEWVAASRNKANDYTTEYADSVKGRFTISRDNSKNTLYLQMNSLRAEDTAVYYCARDYYGSSYWYFDVWGQGTLVTVSS VL: DIQMTQSPSSLSASVGDRVTITCTASESLYSSKHKVHYLAWYQQKPGKAPKLLIYGASNRFIGVPSRFSGSGSGTDFTLTISSLQPEDFATYYCAQFYYYPLTFGGGTKVEIK

>  <OD450 (OD450)>
0.05

$$$$
>  <binder>
PcOxP_DB01_E11 (scFv, V domains shown, scFv in periplasmic extract) VH: EVQLLESGGGLVQPGGSLRLSCAASGFTFSDFYMEWVRQAPGKGLEWVAASRNKANDYVTEYADSVKGRFTISRDNSKNTLYLQMNSLRAEDTAVYYCARDYYGSSYWYFDVWGQGTLVTVSS VL: DIQMTQSPSSLSASVGDRVTITCTASFSLYSSKHKVHYLAWYQQKPGKAPKLLIYGASNRYPGVPSRFSGSGSGTDFTLTISSLQPEDFATYYCAQFYYYPLTFGGGTKVEIK

>  <OD450 (OD450)>
0.06

$$$$

Please look at this binder and report its OD450: PcOxP_DB03_B02 (scFv, V domains shown, scFv in periplasmic extract) VH: EVQLLESGGGLVQPGGSLRLSCAASGFAFSDFYMEWVRQAPGKGLEWVAASRNKANDYTTEYADSVKGRFTISRDNSKNTLYLQMNSLRAEDTAVYYCARDYYGSSYWYFDVWGQGTLVTVSS VL: DIQMTQSPSSLSASVGDRVTITCTASESLYSSKHKVHYLAWYQQKPGKAPKLLIYGASNRYDGVPSRFSGSGSGTDFTLTISSLQPEDFATYYCAQFYEYPLTFGGGTKVEIK
0.05

Hello, please tell me recorded OD450 for this one: PcOxP_DB03_G07 (scFv, V domains shown, scFv in periplasmic extract) VH: EVQLLESGGGLVQPGGSLRLSCAASGFTFSDHYMEWVRQAPGKGLEWVAASRNKANDYTTEYADSVKGRFTISRDNSKNTLYLQMNSLRAEDTAVYYCARDYYGQSYWYFDVWGQGTLVTVSS VL: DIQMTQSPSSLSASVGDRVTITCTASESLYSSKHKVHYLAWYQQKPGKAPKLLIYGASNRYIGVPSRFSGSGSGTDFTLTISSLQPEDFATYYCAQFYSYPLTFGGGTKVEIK
0.05
